Method: Protein binding in rat
Type: ADME
Condition Description: read-out: PB
Reported Endpoint: fraction unbound

Entry "Cc1nc(C)c(-c2csc(Nc3ccc(C(=O)N4C5CCC4CN(c4ncc(C(F)(F)F)cn4)C5)cn3)n2)s1" , fraction unbound reported as < 0.001

====

Method: Oral bioavailability in rat at 1 mg/kg
Type: ADME, organism-based
Condition Description: in vivo
Reported Endpoint: bioavailability (%)
Report as a plain number; the unit % is understood.

Entry "Cc1nc(C)c(-c2csc(Nc3ccc(C(=O)N4C5CCC4CN(c4ncc(C(F)(F)F)cn4)C5)cn3)n2)s1" , bioavailability reported as 37.9

====

pIC50 values, listed per item
Test System: Transient receptor potential cation channel subfamily V member 4 (Homo sapiens)
Sequence (Q9HBA0 whole entry): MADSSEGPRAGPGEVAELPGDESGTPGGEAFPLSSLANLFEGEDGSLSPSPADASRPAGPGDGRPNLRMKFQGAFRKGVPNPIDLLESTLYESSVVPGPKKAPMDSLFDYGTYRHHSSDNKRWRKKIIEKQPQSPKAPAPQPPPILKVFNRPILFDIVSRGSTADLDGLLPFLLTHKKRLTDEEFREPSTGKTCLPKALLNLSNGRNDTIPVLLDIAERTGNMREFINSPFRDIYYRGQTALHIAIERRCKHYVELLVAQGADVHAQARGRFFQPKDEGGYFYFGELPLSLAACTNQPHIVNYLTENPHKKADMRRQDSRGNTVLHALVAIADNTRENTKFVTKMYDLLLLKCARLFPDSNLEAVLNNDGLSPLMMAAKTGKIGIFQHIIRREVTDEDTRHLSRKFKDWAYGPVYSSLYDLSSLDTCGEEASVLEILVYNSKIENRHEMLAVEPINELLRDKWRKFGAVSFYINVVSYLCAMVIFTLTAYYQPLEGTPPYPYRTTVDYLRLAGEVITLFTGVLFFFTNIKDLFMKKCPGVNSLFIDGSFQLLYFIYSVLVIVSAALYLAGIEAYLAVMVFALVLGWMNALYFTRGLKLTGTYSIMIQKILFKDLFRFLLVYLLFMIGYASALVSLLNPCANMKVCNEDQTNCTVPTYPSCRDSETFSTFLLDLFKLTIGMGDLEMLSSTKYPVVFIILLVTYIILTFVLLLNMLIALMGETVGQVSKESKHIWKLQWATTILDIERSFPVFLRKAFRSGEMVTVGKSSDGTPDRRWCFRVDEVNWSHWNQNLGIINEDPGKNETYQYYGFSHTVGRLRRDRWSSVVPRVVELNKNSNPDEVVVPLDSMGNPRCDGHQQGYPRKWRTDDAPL
Method: Antagonist activity at human TRPV4 assessed as inhibition of 4alpha-PDD-induced activation
The quantity pIC50 is defined as the negative base-10 logarithm of the molar concentration.

Some solved entries appear below for comparison.
Test item "Cc1nc(C)c(-c2csc(Nc3ccc(C(=O)N4[C@@H]5CC[C@H]4C/C(=N/O)C5)cn3)n2)s1" ; Transient receptor potential cation channel subfamily V member 4 (Homo sapiens); reported pIC50 was 8.08

Test item "Cc1nc(C)c(-c2csc(Nc3ccc(C(=O)N4[C@@H]5CC[C@H]4C[C@@H](OC(=O)NCCF)C5)cn3)n2)s1" ; Transient receptor potential cation channel subfamily V member 4 (Homo sapiens); reported pIC50 was 8.17

Test item COC(=O)N1CCN(C(=O)c2ccc(Nc3nc(-c4sc(C)nc4C)cs3)nc2)C(C(F)(F)F)C1 (centres undefined) ; Transient receptor potential cation channel subfamily V member 4 (Homo sapiens); reported pIC50 was 9.24

Test item "Cc1nc(C)c(-c2csc(Nc3ccc(C(=O)N4C5CCC4CNC5)cn3)n2)s1" ; Transient receptor potential cation channel subfamily V member 4 (Homo sapiens); reported pIC50 was 6.21

Test item "Cc1nc(C)c(-c2csc(Nc3ccc(C(=O)N4C5CCC4CN(C4CCCCC4)C5)cn3)n2)s1" ; Transient receptor potential cation channel subfamily V member 4 (Homo sapiens); reported pIC50 was 8.55

Test item "Cc1nc(C)c(-c2csc(Nc3ccc(C(=O)N4[C@@H]5CC[C@H]4CC(=NOCC(C)(C)O)C5)cn3)n2)s1" ; Transient receptor potential cation channel subfamily V member 4 (Homo sapiens); reported pIC50 was 8.36

Test item "Cc1nc(C)c(-c2csc(Nc3ccc(C(=O)N4C5CCC4CC(=O)C5)cn3)n2)s1" ; Transient receptor potential cation channel subfamily V member 4 (Homo sapiens); reported pIC50 was 7.62

Test item "Cc1nc(C)c(-c2csc(Nc3ccc(C(=O)N4[C@@H]5CC[C@H]4C[C@H](O)C5)cn3)n2)s1" ; Transient receptor potential cation channel subfamily V member 4 (Homo sapiens); reported pIC50 was 6.19

Further cases:
Test item "Cc1nc(C)c(-c2csc(Nc3ccc(C(=O)N4[C@@H]5CC[C@H]4C/C(=N/OCC(F)(F)F)C5)cn3)n2)s1" ; Transient receptor potential cation channel subfamily V member 4 (Homo sapiens); reported pIC50 was 9.44

====

Method: Plasma concentration in Dunkin-Hartley guinea pig complete Freund's adjuvant-induced mechanical hyperalgesia model at 10 mg/kg, po after 5 hrs
Assay type: ADME, organism-based, Cavia porcellus
Reported Endpoint: concentration at 5 h (ng/mL)
Report as a plain number; the unit ng/mL is understood.

Entry "Cc1nc(C)c(-c2csc(Nc3ccc(C(=O)N4C5CCC4CN(c4ncc(C(F)(F)F)cn4)C5)cn3)n2)s1" , concentration at 5 h reported as 209

Cited source: ChEMBL document CHEMBL3853343
